tested on: RS4;11 cells; test: RS4;11 cell viability assay (CellTiter Glo); type: cell-based, human; conditions: Homo sapiens, RS4-11, 48 h, 50,000 cells per well, 10% human serum, 48 hours; read-out: RS4; 11 EC50 Values;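 note: acute lymphoblastic leukemia line RS4,11, EC50 derived from percentage of viable cells after treatment relative to untreated controls, cell killing taken as a measure of Bcl-2 inhibition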
Experimental readout: EC50 (nM)
Numbers only, in nM.

Solved cases below.
O=C(NS(=O)(=O)c1cnc(OCC2(F)CCOCC2)c(Cl)c1)c1ccc(N2CCC(F)(Cc3ccccc3-c3ccc(Cl)cc3)CC2)cc1Oc1cnc2[nH]ccc2c1 [Example 272]
840
COCCOCCS(=O)(=O)c1ccc(S(=O)(=O)NC(=O)c2ccc(N3CCN(CC4=C(c5ccc(Cl)cc5)CC(C)(C)CC4)CC3)cc2Oc2cnc3[nH]ccc3c2)cc1[N+](=O)[O-] [Example 59]
722
CC1(C)CCC(CN2CCN(c3ccc(C(=O)NS(=O)(=O)c4cnc(OC[C@@H]5CCN(CC(F)F)C5)c(Cl)c4)c(Oc4cnc5[nH]ccc5c4)c3)CC2)=C(c2ccc(Cl)cc2)C1 [Example 281]
654
CC(=O)N1CCC(Nc2ccc(S(=O)(=O)NC(=O)c3ccc(N4CCN(CC5=C(c6ccc(Cl)cc6)CC(C)(C)CC5)CC4)cc3Oc3cnc4[nH]ccc4c3)cc2[N+](=O)[O-])CC1 [Example 53]
66.7
CC1(C)CCC(CN2CCN(c3ccc(C(=O)NS(=O)(=O)c4ccc(NCC5(F)CCOCC5)c([N+](=O)[O-])c4)c(Oc4cnc5[nH]ccc5c4)c3)CC2)=C(c2ccc(Cl)cc2)C1 [Example 138]
1.52
CC1(C)CCC(CN2CCN(c3ccc(C(=O)NS(=O)(=O)c4ccc(OCC5(F)CCN(C6CCOC6)CC5)c([N+](=O)[O-])c4)c(Oc4cnc5[nH]ccc5c4)c3)CC2)=C(c2ccc(Cl)cc2)C1 (stereo not shown) [Example 193]
0.76
CC1(C)CCC(CN2CCN(c3ccc(C(=O)NS(=O)(=O)c4ccc(NCC5(N)CCOCC5)c([N+](=O)[O-])c4)c(Oc4cnc5[nH]ccc5c4)c3)CC2)=C(c2ccc(Cl)cc2)C1 [Example 108]
24.1
CO[C@H]1CC[C@@H](COc2ncc(S(=O)(=O)NC(=O)c3ccc(N4CCN(CC5=C(c6ccc(Cl)cc6)CC(C)(C)CC5)CC4)cc3Oc3cnc4[nH]ccc4c3)cc2Cl)CC1 [Example 211]
307

Now consider the entry below.
Prompt line: Look up EC50: CC(C)N1CCC(Nc2ccc(S(=O)(=O)NC(=O)c3ccc(N4CCN(CC5=C(c6ccc(Cl)cc6)CC(C)(C)CC5)CC4)cc3Oc3cnc4[nH]ccc4c3)cc2[N+](=O)[O-])CC1 [Example 226]
Response line: 118
